- test_method_notes: Anisidine Value (AV, secondary oxidation products) according to Ph. Eur. 2.5.36, before and after storage at 50° C. exposed to air
- Format: physicochemical
- conditions_used: as obtained / as supplied (experiments 1-4)
recorded_metric: Anisidine Value

compound: CCCCC/C=C\C/C=C\C/C=C\C/C=C\CCCC(=O)O [ARA-OH, all-cis-5,8,11,14-eicosatetraenoic acid]
Anisidine Value: 4.2

(A) CCCCC/C=C\C/C=C\C/C=C\CCCCC(=O)OCC
(B) CCCCC/C=C\C/C=C\C/C=C\CCCCC(=O)O
Problem: Parameter metric = Anisidine Value. Return the lower-valued option from A and B . Write down the label of the entry you select.
Solution: B
(B: 7.6, A: 19.1)
